# systemName: ligand-binding domain (LBD) of LXRα (Homo sapiens, UniProt Q13133)
# Construct: expressed in transfected cells; host or cells: HEK293
# methodNotes: LXR Gal4 reporter transient transfection assay (LBD-M2H Gal4α)
# Assay type: cell-based
# conditionInfo: HEK293 cells, LXRα LBD; read-out: LBD-M2H Gal4α (EC50 range)
pEC50: −log10 of the molar value.
Measured pEC50 of individual entries

compound	pEC50
Cc1ccc(S(=O)(=O)n2c(-c3cccc(-c4cccc(C(C)(C)C(=O)O)c4)c3)c(-c3ccsc3C#N)c3ccccc32)cc1	6.00 to 7.00
N#Cc1sccc1-c1c(-c2cccs2)n(S(=O)(=O)c2ccc(Cl)cc2)c2ccc(OCCCCC(=O)O)cc12	6.00 to 7.00
N#Cc1sccc1-c1c(-c2cccc(N3CCC(C(=O)O)C3)c2)n(S(=O)(=O)c2ccc(Cl)cc2)c2ccccc12 (stereo not shown)	6.00 to 7.00
COc1ccc2c(-c3ccsc3C#N)c(-c3cccs3)n(S(=O)(=O)c3ccc(Cl)cc3)c2c1	6.00 to 7.00

Suppose we examine the compound COc1ccc(S(=O)(=O)n2c(-c3ccccc3)c(-c3ccc4ncccc4c3C#N)c3ccccc32)cc1 ; what pEC50 value has been reported? 5.00 to 6.00

// repeat for COc1ccc2c(c1)c(-c1ccsc1C#N)c(-c1cccs1)n2S(=O)(=O)c1ccc(Cl)cc1 and report 5.00 to 6.00

// repeat for N#Cc1ccc(OCC(=O)O)cc1-c1c(-c2cccs2)n(S(=O)(=O)c2ccc(Cl)cc2)c2ccccc12 and report 5.00 to 6.00

---

# systemName: ligand-binding domain (LBD) of LXRβ (Homo sapiens, UniProt P55055, DUP175-175)
# Construct: LXRβ (amino acids 156-461); expressed in transfected cells; host or cells: HEK293
# methodNotes: LXR Gal4 reporter transient transfection assay (LBD-M2H Gal4β)
# Assay type: cell-based
# conditionInfo: HEK293 cells, LXRβ LBD; read-out: LBD-M2H Gal4β (EC50 range)
pEC50: −log10 of the molar value.
observationType: pEC50

A selection of reference data follows.
molecule	systemName	pEC50
N#Cc1sccc1-c1c(-c2cccs2)n(S(=O)(=O)c2ccc(Cl)cc2)c2ccccc12 [20/13]	ligand-binding domain (LBD) of LXRβ (Homo sapiens, UniProt P55055, DUP175-175)	> 7.00
COc1ccc(S(=O)(=O)n2c(-c3ccc(CCC(=O)O)cc3)c(-c3ccsc3C#N)c3ccccc32)cc1 [15/6]	ligand-binding domain (LBD) of LXRβ (Homo sapiens, UniProt P55055, DUP175-175)	6.00 to 7.00
N#Cc1sccc1-c1c(-c2cccs2)n(S(=O)(=O)c2ccc(Cl)cc2)c2ccc(OCC(=O)O)cc12 [Example 15]	ligand-binding domain (LBD) of LXRβ (Homo sapiens, UniProt P55055, DUP175-175)	< 5.00
Cc1ccc(S(=O)(=O)n2c(-c3ccc(/C=C/C(=O)O)s3)c(-c3ccsc3C#N)c3ccccc32)cc1 [3/19]	ligand-binding domain (LBD) of LXRβ (Homo sapiens, UniProt P55055, DUP175-175)	6.00 to 7.00
Cc1ccc(S(=O)(=O)n2c(-c3cccc(C(C)(C)C(=O)O)c3)c(-c3ccsc3C#N)c3ccccc32)cc1 [3/20]	ligand-binding domain (LBD) of LXRβ (Homo sapiens, UniProt P55055, DUP175-175)	> 7.00
Cc1ccc(S(=O)(=O)n2c(-c3cccc(N4CC(C(=O)O)C4)c3)c(-c3ccsc3C#N)c3cc(F)c(Cl)cc32)cc1 [3/43]	ligand-binding domain (LBD) of LXRβ (Homo sapiens, UniProt P55055, DUP175-175)	6.00 to 7.00
Cc1ccc(S(=O)(=O)n2c(-c3cccc(C4CC4C(=O)O)c3)c(-c3ccsc3C#N)c3ccccc32)cc1 (racemic) [Example 30]	ligand-binding domain (LBD) of LXRβ (Homo sapiens, UniProt P55055, DUP175-175)	> 7.00
O=C(O)c1sccc1-c1c(-c2cccs2)n(S(=O)(=O)c2ccc(Cl)cc2)c2ccccc12 [Example 21]	ligand-binding domain (LBD) of LXRβ (Homo sapiens, UniProt P55055, DUP175-175)	5.00 to 6.00

Suppose we examine the molecule Cc1ccc(S(=O)(=O)n2c(-c3cccc(N4CC(C(=O)O)C4)c3)c(-c3ccsc3C#N)c3cc(F)c(F)cc32)cc1 [3/42] ; what pEC50 value has been reported? > 7.00

// repeat for Cc1ccc(S(=O)(=O)n2c(-c3cccc(-c4cccc(C(C)(C)C(=O)O)c4)c3)c(-c3ccsc3C#N)c3ccccc32)cc1 [30/2] and report 6.00 to 7.00

// repeat for N#Cc1sccc1-c1c(-c2cccc(N3CC(C(=O)O)C3)c2)n(S(=O)(=O)c2ccc(Cl)cc2)c2ccccc12 [30/7] and report > 7.00

// repeat for N#Cc1sccc1-c1c(-c2cccc(C3CC3C(=O)O)c2)n(S(=O)(=O)C2CC2)c2ccccc12 (stereo not drawn) [30/12] and report 6.00 to 7.00

// repeat for N#Cc1sccc1-c1c(-c2cccs2)n(S(=O)(=O)c2ccc(Cl)cc2)c2cc(O)ccc12 [13/1] and report > 7.00

// repeat for Cc1ccc(S(=O)(=O)n2c(-c3cccc(C4CC4C(=O)O)c3)c(-c3ccsc3F)c3ccccc32)cc1 (stereo not drawn) [30/14] and report 6.00 to 7.00

// repeat for N#Cc1sccc1-c1c(-c2cccc(OCCC(=O)O)n2)n(S(=O)(=O)c2ccc(Cl)cc2)c2ccccc12 [Example 31] and report 6.00 to 7.00

---

Measured EC50 of individual entries
# systemName: full length (FL) LXRα (Homo sapiens, UniProt Q13133)
# Construct: the full length (FL) proteins of LXRα (amino acids 1-447); NP005684; expressed in transfected cells; host or cells: HEK293
# Sequence (Q13133 1-447): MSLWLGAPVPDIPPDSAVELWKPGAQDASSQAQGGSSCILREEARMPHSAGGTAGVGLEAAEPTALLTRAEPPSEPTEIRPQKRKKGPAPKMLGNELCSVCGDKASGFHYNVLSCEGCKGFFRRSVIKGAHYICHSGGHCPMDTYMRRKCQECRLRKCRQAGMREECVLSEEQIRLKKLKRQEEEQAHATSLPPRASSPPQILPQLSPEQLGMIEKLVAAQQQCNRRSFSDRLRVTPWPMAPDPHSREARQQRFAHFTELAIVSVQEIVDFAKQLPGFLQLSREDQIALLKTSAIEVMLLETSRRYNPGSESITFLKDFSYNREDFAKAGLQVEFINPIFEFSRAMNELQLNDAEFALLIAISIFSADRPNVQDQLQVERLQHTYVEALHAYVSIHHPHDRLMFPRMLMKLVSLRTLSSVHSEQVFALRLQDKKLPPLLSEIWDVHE
# methodNotes: LXR Gal4 reporter transient transfection assay (FL-M2H Gal4α)
# Assay type: cell-based
# conditionInfo: HEK293 cells, full length LXRα; read-out: FL-M2H Gal4α (EC50 range)

A selection of reference data follows.
compound	systemName	EC50
N#Cc1ccccc1-c1c(-c2cccc(-c3ccc(C(=O)O)cc3Cl)c2)n(S(=O)(=O)c2ccc(C(F)F)cc2)c2cnccc12	full length (FL) LXRα (Homo sapiens, UniProt Q13133)	< 100 nM
CN(CCS(=O)(=O)O)C(=O)c1ccc(-c2cccc(-c3c(-c4c(C#N)cccc4C#N)c4cc(F)ccc4n3S(=O)(=O)c3ccc(C(F)F)cc3)c2)c(Cl)c1	full length (FL) LXRα (Homo sapiens, UniProt Q13133)	< 100 nM
Cc1ccc(S(=O)(=O)n2c(-c3cccc(N4CC(C(=O)O)C4)c3)c(-c3ccsc3C=O)c3cc(F)ccc32)cc1	full length (FL) LXRα (Homo sapiens, UniProt Q13133)	100 to 1000 nM
Cc1ccc(S(=O)(=O)n2c(-c3cccc(N4CC(C(=O)O)C4)c3)c(-c3ccccc3C3COC3)c3cc(F)ccc32)cc1	full length (FL) LXRα (Homo sapiens, UniProt Q13133)	100 to 1000 nM

Now look at this entry.
# query: EC50 | item N#Cc1sccc1-c1c(-c2cccc(C3CC3C(=O)O)c2)n(S(=O)(=O)c2ccc(Cl)cc2)c2ccc(F)cc12 (centres unmarked) | system: full length (FL) LXRα (Homo sapiens, UniProt Q13133) < 100 nM

---

# systemName: LXRβ ligand-binding domain (Homo sapiens, UniProt P55055, DUP175-175)
# Construct: amino acids 156-461; NP009052; made in house; host or cells: E. coli
# Sequence (P55055 with tags, fused parts or gaps DUP175-175 limits assumed): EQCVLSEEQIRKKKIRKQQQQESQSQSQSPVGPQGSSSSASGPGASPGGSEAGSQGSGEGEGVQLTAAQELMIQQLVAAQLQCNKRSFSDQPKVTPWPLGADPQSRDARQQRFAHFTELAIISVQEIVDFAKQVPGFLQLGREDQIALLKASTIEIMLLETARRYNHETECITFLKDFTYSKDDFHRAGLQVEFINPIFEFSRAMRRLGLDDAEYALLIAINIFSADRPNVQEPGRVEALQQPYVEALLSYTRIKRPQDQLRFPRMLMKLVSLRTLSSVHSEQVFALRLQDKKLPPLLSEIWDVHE
# methodNotes: TR-FRETβ activity assay (NCoA3 coactivator peptide recruitment)
# Type: biochemical
# conditionInfo: TR-FRET, 1 μM 24(S)-25-epoxycholesterol prestimulation; read-out: FRETβ (EC50 range)
pEC50: −log10 of the molar value.
Measured pEC50 of individual entries

compound	pEC50
Cc1ccc(S(=O)(=O)n2c(-c3cccc(N4CC(C(=O)O)C4)c3)c(-c3ccsc3C#N)c3cc(F)ccc32)c(F)c1	5.00 to 6.00
COC(=O)C(C)(C)N(C)C(=O)C1CN(c2cccc(-c3c(-c4ccsc4C#N)c4cc(F)ccc4n3S(=O)(=O)c3ccc(C)cc3)c2)C1	6.00 to 7.00

Suppose we examine the compound O=C(O)c1ccc(-c2cccc(-c3c(-c4ccccc4)c4cc(F)ccc4n3S(=O)(=O)c3ccc(C(F)F)cc3)c2)c(Cl)c1 [C11/39, reference compound] ; what pEC50 value has been reported? 6.00 to 7.00

// repeat for COc1ccc(S(=O)(=O)n2c(-c3ccccc3)c(-c3cc(C)sc3C#N)c3ccccc32)cc1 and report 5.00 to 6.00

// repeat for Cc1ccc(S(=O)(=O)n2c(-c3cccc(-c4cc(C(=O)O)n[nH]4)c3)c(-c3ccsc3C#N)c3cc(F)ccc32)cc1 and report 5.00 to 6.00

// repeat for Cc1ccc(S(=O)(=O)n2c(-c3cccc(C4CC4C(=O)O)c3)c(-c3ccc(F)cc3C#N)c3ccccc32)cc1 (centres unmarked) and report 5.00 to 6.00

// repeat for COc1ccc(S(=O)(=O)n2c(-c3cccc(N4CC(C(=O)O)C4)c3)c(-c3ccsc3C#N)c3cc(F)ccc32)cc1 and report 5.00 to 6.00
